molecular target: Mu-type opioid receptor (Homo sapiens, UniProt P35372)
Sequence (P35372 whole entry): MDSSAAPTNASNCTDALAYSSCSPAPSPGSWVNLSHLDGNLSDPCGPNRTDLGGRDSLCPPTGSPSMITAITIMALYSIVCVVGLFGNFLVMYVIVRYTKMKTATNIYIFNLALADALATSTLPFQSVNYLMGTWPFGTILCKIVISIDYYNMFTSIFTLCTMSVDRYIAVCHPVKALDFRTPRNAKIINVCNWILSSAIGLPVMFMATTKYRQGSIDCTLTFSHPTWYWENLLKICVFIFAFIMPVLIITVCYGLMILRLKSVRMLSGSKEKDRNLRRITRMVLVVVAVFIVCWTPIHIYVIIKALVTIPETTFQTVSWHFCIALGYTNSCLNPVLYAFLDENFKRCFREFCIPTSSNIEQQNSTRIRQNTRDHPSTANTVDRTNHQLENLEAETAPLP
readout kind: pKi
// pKi is dimensionless: -log10 of concentration (M)

smiles str	pKi
CC[C@@]12CCN(C)C[C@@H]1Oc1ccc(O)cc12	7.80

Give pKi only, for CC[C@@]12CCN(C[C@@H](O)c3ccccc3)C[C@@H]1Oc1ccc(O)cc12 , using Mu-type opioid receptor (Homo sapiens, UniProt P35372) data.
8.03

Give pKi only, for CC[C@]12CCNC[C@H]1Oc1ccc(O)cc12 , using Mu-type opioid receptor (Homo sapiens, UniProt P35372) data.
5.46

Give pKi only, for CC[C@]12CCN(CCc3ccccc3)C[C@H]1Oc1ccc(O)cc12 , using Mu-type opioid receptor (Homo sapiens, UniProt P35372) data.
6.70
